# Test system: HOP-62 NSCLC
# assay-name: NCI-60 one-dose screen, 48 h
# conditions: 10 µM unless noted
This is part of a sample that, as a whole, favours compounds with a hit. Of some 83,000 tested, about 20% had one in any assay. Active and inactive are the calls of the source. The calls were made as follows: active = growth percent below 10; inactive = the rest.
Reply using exactly one outcome from active, inactive

Past entries and their recorded results:
CC1OC(C(=O)N2CCN(CCO)CC2)CC1COC1CCCCC1 (centres undefined) : inactive
COc1cc2c(c(OC)c1OC)CCC(c1cccc(C(=O)Nc3ccccc3Br)c1)O2 (centres undefined) : inactive
C=C(C)[C@@H]1CC[C@]2(COCCCNCCCN)CC[C@]3(C)[C@H](CC[C@@H]4[C@@]5(C)CC[C@H](OCCCN)C(C)(C)[C@@H]5CC[C@]43C)[C@@H]12 : active
Cc1[nH]c(C2CC(c3ccc(C(F)(F)F)c(F)c3)=NN2C)c(C)c1C(=O)NCC(F)(F)F (centres undefined) : inactive
COc1ccc(C2=NN3C(C2)c2cc(Br)ccc2OC3c2ccncc2)cc1 (centres undefined) : inactive
Cc1cc2c(c(C)n1)CN(C(=O)Nc1nc(-c3cncs3)ccc1N)C2 : inactive
COc1ccc(Nc2nccc(Nc3ccc4[nH]ncc4c3)n2)cc1 : inactive
O=C(Nc1ccccc1CNc1nc(Nc2ccc(OCCN3CCCC3)cc2)ncc1Cl)NC1CCCCC1 : inactive

Now let's try a different one.
Hi, do you know how COc1cccc(-c2nn(-c3ccccc3)cc2-c2ccnc(-c3cccnc3)c2)c1 came out in this test? inactive

* * *

# System: OVCAR-8 ovarian
# assay-name: NCI-60 one-dose screen, 48 h
# conditions: 10 µM unless noted
About 83,000 compounds went through this panel and 20% of them were active in at least one assay; those are over-represented in the sample as a whole. The source made the active and inactive calls. The calls were made as follows: active = growth percent below 10; inactive = the rest.
Reply using exactly one outcome from active, inactive

Past entries and their recorded results:
C=C(CNCCc1ccc(O)cc1)[C@@H]1CC[C@]2(CO)CC[C@]3(C)[C@H](CC[C@@H]4[C@@]5(C)CCC(N)C(C)(C)[C@@H]5CC[C@]43C)[C@@H]12 (stereo partly drawn) : active
COc1ccc(Cn2cc(C(=O)N=Nc3c(O)[nH]c4ccc(Br)cc34)nn2)cc1 : inactive
CN1CC(c2ccccc2)C(C(=O)c2ccc(Br)cc2)C12C(=O)Nc1ccccc12 (stereo not drawn) : inactive
O=C1/C(=C/c2cccc([N+](=O)[O-])c2)COc2ccc(O)c(O)c21 : active
O=C(Nc1cccc(Cn2c(=O)[nH]c3ccc(Oc4ncccn4)cc3c2=O)c1)c1cccc(Cl)c1 : inactive

Hi, do you know how C/C(=C(\c1ccc(OCCCN(C)C)cc1)c1ccc(OC(=O)Cc2ccccc2)cc1)c1ccc(Cl)cc1 came out in this test? inactive

Hi, do you know how CC/C(=C(/c1ccc(Cl)cc1)c1ccc(OCCCN(C)C)cc1)c1ccc(OC)cc1 came out in this test? inactive

Hi, do you know how O=C(/C=C/c1cccc([N+](=O)[O-])c1)c1ccc(Nc2nc(Nc3ccc(F)cc3)nc(Nc3ccc(Cl)cc3)n2)cc1 came out in this test? inactive

* * *

# Test system: OVCAR-8 ovarian
# assay-name: NCI-60 one-dose screen, 48 h
# conditions: 10 µM unless noted
The panel holds about 83,000 compounds, 20% with a hit somewhere; the sample as a whole holds those more often. The source made the active and inactive calls. How the source made its calls: active means growth percent below 10; inactive means the rest.
Reply using exactly one outcome from true (1) (active), false (0) (inactive)

Hi, do you know how Cc1ccc(Nc2oc(-c3ccccc3)nc2[P+](c2ccccc2)(c2ccccc2)c2ccccc2)cc1 came out in this test? true (1)

Hi, do you know how CC1=NC(=S)NC(c2ccccc2)/C1=C1/CC(c2ccccc2O)NN1 (stereo not given) came out in this test? false (0)

Hi, do you know how Cc1[nH]c(C2CC(c3ccc(C(F)(F)F)c(F)c3)=NN2C)c(C)c1C(=O)NCC(F)(F)F (stereo not given) came out in this test? false (0)

Hi, do you know how Cc1cc(C)n(C(=O)CSc2nc3sc4c(c3c(=O)n2-c2ccccc2)CCCCC4)n1 came out in this test? false (0)

Hi, do you know how O=c1n(C2OC(CO)C(O)C2O)ccc2nccn12 (stereo not given) came out in this test? false (0)

Hi, do you know how CCOC(=O)/C(=C\c1ccccc1Cl)P(=O)(OCC)OCC came out in this test? false (0)

Hi, do you know how OC1CSSC1Cn1cnc2c(Nc3ccc(F)c(Cl)c3)ncnc21 (stereo not given) came out in this test? false (0)

Hi, do you know how C=CCn1c(SCC(=O)Nc2ccc(C(=O)/C=C/c3cc(OC)c(OC)c(OC)c3)cc2)nnc1-c1cc(-c2ccc(S(N)(=O)=O)cc2)nc2ccccc12 came out in this test? false (0)

Hi, do you know how CS(=O)(=O)Nc1cc(-c2ccc3ncnc(Nc4cccc(Cl)c4)c3c2)cnc1Cl came out in this test? false (0)

Hi, do you know how O=C1/C(=C/c2ccc(Br)cc2)COc2ccc(O)cc21 came out in this test? false (0)

* * *

# System: SW-620 colon
# assay-name: NCI-60 one-dose screen, 48 h
# conditions: 10 µM unless noted
# Experimental: Growth inhibition of the SW-620 human tumor cell line is measured as a screen for anti-cancer activity. Cells are grown in 96 well plates and exposed to the test compound for 48 hours. Compounds are tested at a single concentration, which is 10^-5 M for most compounds. The reported endpoint is percent growth (GI% or GIPRCNT), where numbers from 0 - 100% represent growth inhibition, and numbers from -100% - 0 represent cell death. For example, a value of 40 represents 60% growth inhibition. […]
This is part of a sample that, as a whole, favours compounds with a hit. Of some 83,000 tested, about 20% had one in any assay. The source made the active and inactive calls. The calls were made as follows: active = growth percent below 10; inactive = the rest.
Reply using exactly one outcome from active, inactive

Hi, do you know how Cn1cc(-c2ccc3c(Nc4cccc(NC(=O)Nc5cccc(F)c5)c4)ncnc3c2)cn1 came out in this test? inactive

Hi, do you know how COc1cc(-c2c(-c3ccccc3)c[nH]c2C(=O)NCCCO)c(OC)c2c1OCO2 came out in this test? inactive

* * *

# Tested on: OVCAR-4 ovarian
# assay-name: NCI-60 one-dose screen, 48 h
# conditions: 10 µM unless noted
# Protocol: Growth inhibition of the OVCAR-4 human tumor cell line is measured as a screen for anti-cancer activity. Cells are grown in 96 well plates and exposed to the test compound for 48 hours. Compounds are tested at a single concentration, which is 10^-5 M for most compounds. The reported endpoint is percent growth (GI% or GIPRCNT), where numbers from 0 - 100% represent growth inhibition, and numbers from -100% - 0 represent cell death. For example, a value of 40 represents 60% growth inhibition. […]
About 83,000 compounds went through this panel and 20% of them were active in at least one assay; those are over-represented in the sample as a whole. Calls of active or inactive are those of the source. How the source made its calls: active means growth percent below 10; inactive means the rest.
Reply using exactly one outcome from active, inactive

Hi, do you know how Cn1ccnc1C(=O)/C=C/c1ccc(C(=O)Nc2ccccc2F)cc1 came out in this test? inactive

* * *

# Test system: MCF7 breast
# assay-name: NCI-60 one-dose screen, 48 h (100 = growth as untreated, 0 = no growth, -100 = all killed)
# conditions: 10 µM unless noted
# Protocol: Growth inhibition of the MCF7 human tumor cell line is measured as a screen for anti-cancer activity. Cells are grown in 96 well plates and exposed to the test compound for 48 hours. Compounds are tested at a single concentration, which is 10^-5 M for most compounds. The reported endpoint is percent growth (GI% or GIPRCNT), where numbers from 0 - 100% represent growth inhibition, and numbers from -100% - 0 represent cell death. For example, a value of 40 represents 60% growth inhibition. […]
Compounds without any hit were thinned out: in the full panel of roughly 83,000, 20% have a hit.
Note to self: use yes only for growth readings below 40%; a reading exactly at 40% still gets no.

Past entries and their recorded results:
COC(=O)[C@H](C)NC(=O)c1ccc(NC(=O)c2[nH]c(C)c(Cl)c2Cl)c(OCCN)c1 : no
Cc1ccc(C(F)(F)F)cc1N1CCN(C(=O)[C@H]2C[C@H]2c2ccc(C(F)(F)F)nc2)CC1 : no
COc1cccc(C2C3=C(COC3=O)N(CCO)c3cc4c(cc32)OCCO4)c1 (stereo not given) : yes

Would you kindly verify if growth of Oc1ccc(C(c2ccc(O)cc2)c2ccc(Cl)cn2)cc1 is strictly less than 40%? yes

Would you kindly verify if growth of C(CCCSC1=NCCN1)CCSC1=NCCN1 is strictly less than 40%? no

Would you kindly verify if growth of Cn1nc(-c2ccc(Cl)cc2)nc2c(=O)n(C)c(=O)nc1-2 is strictly less than 40%? yes

Would you kindly verify if growth of COC(=O)[C@H]1Cc2c([nH]c3ccccc23)[C@H](c2ccc3c(c2)OCO3)N1 is strictly less than 40%? no

Would you kindly verify if growth of Cn1cc(-c2nc(-c3c[nH]c4c(Cl)nccc34)cs2)c2ccccc21 is strictly less than 40%? no

Would you kindly verify if growth of CC(=O)Oc1ccccc1C(=O)N(Cc1ccc2c(Cl)cc(Cl)c(O)c2n1)c1ccccc1 is strictly less than 40%? yes

Would you kindly verify if growth of CCCCCN(CCCCC)CC(O)c1c(Cl)ccc2ccccc12 (stereo not given) is strictly less than 40%? no
